These data points were gathered from paper PMC8268672.

System: Sindbis virus
Assay: CPE reduction assay in Vero cells
Type: cell-based
Details: read-out: Antiviral EC50, Sindbis virus
quantity: EC50

Give EC50 (Sindbis virus) of the following compound: Cc1ccc(S(=O)(=O)N2C(=O)CSC2c2ccc(Cl)cc2)cc1 (stereo not shown)
> 100 µM

Follow-up entry: Cc1ccc(S(=O)(=O)N2C(=O)CSC2c2ccccc2F)cc1 (stereo not shown)
> 100 µM

Try this compound too: Cc1ccc(S(=O)(=O)N2C(=O)CSC2c2ccccc2O)cc1 (stereo not shown)
> 100 µM

// repeat for Cc1ccc(S(=O)(=O)N2C(=O)CSC2c2ccccc2Cl)cc1 (stereo not shown) and report
> 100 µM

Okay, and Cc1ccc(S(=O)(=O)N2C(=O)CSC2c2ccccc2[N+](=O)[O-])cc1 (stereo not shown) ?
> 100 µM

Entry to check: COc1c(C)c2c(c(O)c1C/C=C(\C)CCC(=O)O)C(=O)OC2 [Mycophenolic acid, mycophenolic acid, reference compound]
11.7 µM

Further, for Cc1ccc(S(=O)(=O)N2C(=O)CSC2c2ccccc2)cc1 (stereo not shown) ?
> 100 µM

Also Cc1ccc(S(=O)(=O)N2C(=O)CSC2c2ccc([N+](=O)[O-])cc2)cc1 (stereo not shown) ?
> 100 µM

And what about the compound Cc1ccc(S(=O)(=O)N2C(=O)CSC2c2cccc(Br)c2)cc1 (stereo not shown) ?
> 100 µM

Cc1ccc(S(=O)(=O)N2C(=O)CSC2c2ccc(O)cc2)cc1 (stereo not shown) ?
> 100 µM

And for Cc1ccc(S(=O)(=O)N2C(=O)CSC2c2cccc([N+](=O)[O-])c2)cc1 (stereo not shown) ?
> 100 µM

// same read-out, input: Cc1ccc(S(=O)(=O)N2C(=O)CSC2c2ccc(C(C)C)cc2)cc1 (stereo not shown)
> 100 µM

Field entry: NC(=O)c1ncn([C@@H]2O[C@H](CO)[C@@H](O)[C@H]2O)n1 [Ribavirin, reference compound]
> 250 µM
